Source of measurements: patent US20180291110A1

# System Tested: T1, human transferrin receptor (recombinant, for surface plasmon resonance) (human, UniProt P02786 89-760)
# T1 construct: also called huTfR; human transferrin receptor-biotinylated
# T1 sequence (P02786 89-760 limits assumed): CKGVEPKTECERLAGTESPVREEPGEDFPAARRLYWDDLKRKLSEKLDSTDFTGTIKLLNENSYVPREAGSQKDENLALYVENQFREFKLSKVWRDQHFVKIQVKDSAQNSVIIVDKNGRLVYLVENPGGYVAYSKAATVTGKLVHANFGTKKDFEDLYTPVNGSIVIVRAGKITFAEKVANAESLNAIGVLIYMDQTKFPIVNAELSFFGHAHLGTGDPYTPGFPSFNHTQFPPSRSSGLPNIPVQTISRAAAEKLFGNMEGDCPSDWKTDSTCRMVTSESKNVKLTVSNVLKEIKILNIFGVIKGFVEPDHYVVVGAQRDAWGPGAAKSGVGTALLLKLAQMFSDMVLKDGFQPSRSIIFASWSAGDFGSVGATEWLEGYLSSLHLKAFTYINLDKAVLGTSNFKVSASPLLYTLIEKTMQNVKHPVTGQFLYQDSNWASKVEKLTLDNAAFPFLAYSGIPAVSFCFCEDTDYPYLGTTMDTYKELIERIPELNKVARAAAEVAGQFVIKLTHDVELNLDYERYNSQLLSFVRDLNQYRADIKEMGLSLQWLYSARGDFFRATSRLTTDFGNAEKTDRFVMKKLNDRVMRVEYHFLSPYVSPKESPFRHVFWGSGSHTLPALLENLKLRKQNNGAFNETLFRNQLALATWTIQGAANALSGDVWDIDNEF
# Test: SPR 25C
Quick rule for you: koff at 0.002 s⁻¹ or higher means Condition met, lower means Condition not met.

Quick check, koff >= 0.002 s⁻¹? 2/99 VH17/VL12 (antibody, V domains shown) VH: QQLQESGPGLVKPSETLSLTCTVSGFSLSSYAMSWVRQPPGKGLEWIGYIWSGGSTDYNPSLKSRVTISKDTSKNQVSLKLSSVTAADTAVYYCARRYGTSYPDYGDANGFDPWGPGTLVTVSS VL: DIQMTQSPSSLSASVGDRVTITCRASQSISSYLAWYQQKPGKAPKLLIYRASTLASGVPSRFSGSRSGTDFTLTISSLQPEDFATYYCQQHYSSSNVDNTFGGGTKVEIK
Condition met

Quick check, koff >= 0.002 s⁻¹? 2/99 VH16/VL14 (antibody, V domains shown) VH: QQLQESGPGLVKPSETLSLTCTVSGFSLSSYAMSWVRQPPGKGLEWIGYIWSGGSTDYNPSLKSRVTISVDTSKNQVSLKLSSVTAADTAVYYCARRYGTSYPDYGDANGFDPWGPGTLVTVSS VL: DIVMTQSPDSLAVSLGERATINCKSSQSISSYLSWYQQKPGQRPKLLIYRASTLASGVPDRFSGSGSGTDFTLTISSLQAEDVAVYYCQQSYSSSNVDNTFGGGTKVEIK
Condition not met

Quick check, koff >= 0.002 s⁻¹? 2/99 VH12/VL14 (antibody, V domains shown) VH: QVQLQESGPGLVKPSETLSLTCTVSGFSLSSYAMSWIRQPPGKGLEWIGYIWSGGSTDYNPSLKSRVTISVDTSKNQFSLKLSSVTAADTAVYYCARRYGTSYPDYGDANGFDPWGQGTLVTVSS VL: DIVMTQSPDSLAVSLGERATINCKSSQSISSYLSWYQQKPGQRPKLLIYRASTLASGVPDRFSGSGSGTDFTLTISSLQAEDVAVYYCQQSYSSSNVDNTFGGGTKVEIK
Condition met
